Values compiled from ChEMBL document CHEMBL5335789.

System: SK-OV-3
TEST PROTOCOL: Cytotoxicity against human SK-OV-3 cells assessed as reduction in cell growth measured after 24 hrs by MTT assay
Type: functional, cell-based
CONDITIONS USED: SK-OV-3, 24 h
EXPERIMENTAL READOUT: pIC50
Numbers only, as −log10 of the molar value.

Ask | Record request: pIC50 value, item O=C(Oc1ccc(-c2ccc(OC(=O)c3cc(O)c(O)c(O)c3)cc2)cc1)c1cc(O)c(O)c(O)c1
Reply | 5.00

* * *

Test system: K562
TEST PROTOCOL: Antiproliferative activity against human K562 cells assessed as reduction in cell viability incubated for 48 hrs by MTT assay
Assay type: functional, cell-based
CONDITIONS USED: K562, 48 h
EXPERIMENTAL READOUT: pIC50
Answers are plain numbers, as −log10 of the molar value.

Ask | Form: Entry = CCCCCCCCCCCCCCCC(=O)Oc1cc([C@H]2Oc3cc(O)cc(O)c3C[C@H]2OC(=O)c2cc(O)c(O)c(O)c2)cc(O)c1O | System = K562 | pIC50 = ____
Reply | 4.77
